- TARGET_SYSTEM: biotin-labeled SARS-COV-2 RBD domain (SARS-CoV-2, UniProt P0DTC2 319-541)
- TEST_SUMMARY: SPR, Biacore T200, biotin-RBD on SA chip, antibody as analyte
PARAMETER: Kd

# BINDER, PARAMETER, RESULT
measured = [
    ("ABU-368 (antibody, V domains shown) VH: EVQLVESGGGLIQPGGSLRLSCAASGFTVSSNYMSWVRQAPGKGLEWVSVIYSGGSTFYADSVKGRFTISRDNSKNTLYLQMNSLRAEDTAVYYCARDLGAYGMDVWGQGTTVTVSS VL: DIQLTQSPSFLSASVGDRVTITCRASQGISSYLAWYQQKPGKAPKLLIYAASTLQSGVPSRFSGSGSGTEFTLTISSLQPEDFATYYCQQLNSDLYTFGQGTKLEIK", "Kd", "< 20 nM"),
    ("ABU-341 (antibody, V domains shown) VH: QVQLQESGPGLVKPSQTLSLTCTVSAGSISSDTYYWSWIRQPAGKGLEWIGRIYTTGSTIYNPSLNSRVLISADTSNNQFSLKLTSVTASDTAVYYCAAHYYSRTDAFHIWGQGTMVTVSS VL: DIQMTQSPSSLSASVGDRVTITCRASQSIAKFLNWYQKKPGKAPNLLISTASSFQSGVPSRFSGSGSGTDYTLTISGLQPEDFATYYCQQSYSSPYTFGQGTNLEIK", "Kd", "< 10 nM"),
    ("ABU-380 (antibody, V domains shown) VH: EVQLVESGGGLVQPGGSLRLSCAASGFTVSSNYMSWVRQAPGKGLEWVSLIYPGGSTYYADSVEGRFTISRDNSKNTLYLQMNSLRAEDTAVYYCAREIRVITPVEVWGQGTLVTVSS VL: DIQMTQSPSSLSASVGDRVTITCQASQDINKYLNWYQLKPGKAPNLLIYDASNLETGVPSRFSGSGSGTDFTFTISSLQPEDIATYYCHQYDNLPRTFGQGTKVEIK", "Kd", "< 1 nM"),
    ("ABU-367 (antibody, V domains shown) VH: EVQLVESGGGLIQPGGSLRLSCAASGIIVSSNYMTWVRQAPGKGLEWVSVIYSGGSTFYADSVKGRFTISRDNSKNTLYLQMSSLRAEDTAVYYCARDLGPYGMDVWGQGTTVTVSS VL: DIQLTQSPSFLSASVGDRVTITCRASQGISSDLAWYQQKPGKAPNLLIYAASTLQSGVPSRFSGSGSGTEFTLTISSLQPEDFATYYCQQLNSDLYTFGQGTKLEIK", "Kd", "< 1 nM"),
    ("ABU-371 (antibody, V domains shown) VH: EVQLVESGGGLVQPGGSLRLSCAASGIIVSSNYMSWVRQAPGKGLEWVSVIYSGGSTYYADSVKGRFTISRDNSKNTLYLQMNSLRAEDTAVYYCARDLDYYGMDVWGQGTTVTVSS VL: DIQLTQSPSFLSASVGDRVTITCRASQGISSYLAWYQQKPGKAPKLLIYAASTLQSGVPSRFSGSGSGTEFTLTISSLQPEDFATYYCQQLNSYPPFTFGPGTKVDIK", "Kd", "< 20 nM"),
    ("ABU-349 (antibody, V domains shown) VH: EVQLVESGGGLIQPGGSLRLSCAASGFTVSRNYMSWVRQAPGKGLEWVSLIYSGGSTFYADSVKGRFTISRDNSKNTLYLQMNTLRSEDTAVYYCARDLVVYGMDVWGQGTTVTVSS VL: DIQLTQSPSFLSASVGDRVTITCRASQGISSYLAWYQQKPGKAPKLLIYAASTLQVGVPSRFSGSGSGTEFTLTISSLQPEDFATYFCQQLNSYPFTFGPGTKVDIK", "Kd", "< 1 nM"),
    ("ABU-325 (antibody, V domains shown) VH: EVQLVESGGGLIQPGGSLRLSCAASGFTVSSNYMSWVRQAPGKGLEWVSVIYSGGSTYYADSVKGRFTISRDNSKNTLYLQMNSLRAEDTAVYYCARDRRVGSPYYYYYMDVWGKGTTVTVSS VL: QTVVTQEPSLTVSPGGTVTLTCASSTGAVTSGYYPNWFQQKPGQAPRALIYSTSNKHSWTPARFSGSLLGGKAALTLSGVQPEDEAEYYCLLYYGGAPVFGGGTKLTVL", "Kd", "< 10 nM"),
    ("ABU-339 (antibody, V domains shown) VH: EMQLLESGGGLVQPGGSLRLSCAASGFTFFSYALSWVRQAPGKGLEWVSGISGISDSGGNTYYADSVKGRFTISRDNSQNMLYLQMNSLRVEDTAVYYCAKERRPVLRYFDWLPIEAPDYWGPGTLVTVSS VL: AIQLTQSPSSLSASVGDRVTITCRASQGISSSLAWYQQKPGKAPKLLIYSASTLQSGVPSRFSGSGSGTDFTLTITSLQPEDFATYYCQQLNSYPLTFGGGTKVEIK", "Kd", "< 20 nM"),
    ("ABU-346 (antibody, V domains shown) VH: EAQLLESGGGLVQPGGSLRLSCAVSGFTVSSYDMSWVRQAPGKRLEWVSFISARGSVTYYADSVRGRFTISRDNFKNTLYVEMNNLRVEDTAVYYCAKGHWSTWGQGTLVTVSS VL: DVVLTQSPLSLPVTLGQPASISCRSSHSLVYSDGYTHLHWIQERPGQSPRRLIYSVSHRDSGVPDRFSGSGSATDFTLQISRVEAEDVGVYYCMQGSHWPWTFGQGTKVEIK", "Kd", "< 10 nM"),
    ("ABU-316 (antibody, V domains shown) VH: QVQLVESGGGVVQPGRSLRLSCAASGFTFSSYGMHWVRQAPGKGLEWVAVISYDGSNKYYVDSVKGRFTISRDNSKNTLYLQMNSLRAEDTAVYYCAKDPYYYGSGSSNFFDYWGQGTLVTVSS VL: SYVLTQPPSVSVAPGKTARITCGGNNIGSKSVHWYQQKPGQAPVLVVYDDNDRPSGIPDRFSGSNSGNTATLTISRVEAGDEADYYCQVWDSSSDHYWVFGGGTKLTVL", "Kd", "< 10 nM"),
]
